Record form. Attribute: change in vivo at 50 mg/kg. Fill in for each entry.
Tested on: Hyperlipidemic Hamster
Test: In Vivo Assay of Hypolipidemic Agents Using the Hyperlipidemic Hamster
Details: Mesocricetus auratus, po, 168 h, 50 mg/kg once daily oral, 7 days; percent change versus control, negative = lowering; read-out: % Reduction (in vivo) Cholest. Esters
Reply with the number and its unit after it.

Give the measured change in vivo at 50 mg/kg of COc1ccc(N2C(=O)[C@H](CCCc3ccccc3)[C@H]2c2ccc(N(C)C)cc2)cc1 (relative stereo) .
-60%

Give the measured change in vivo at 50 mg/kg of CCOc1ccc([C@@H]2[C@@H](CCCc3ccccc3)C(=O)N2c2ccccc2)cc1 (relative stereo) .
-94%

Give the measured change in vivo at 50 mg/kg of COc1ccc(N2C(=O)[C@H](CCCc3ccccc3)[C@@H]2c2ccsc2)cc1 (relative stereo) .
0%

Give the measured change in vivo at 50 mg/kg of COc1ccc(N2C(=O)[C@H](CCCc3ccccc3)[C@H]2c2ccc(O)c(I)c2)cc1 (relative stereo) .
0%
